Would you kindly list GLP-1 agonism EC50 for each of these binders?
Molecular target: human GLP-1 receptor (human, UniProt P43220 24-463)
Experiment: cell-based or functional assay
Bridge positions count the residues as written; N and C are the ends. Square brackets hold non-standard residues; d marks the D form. Side chains are listed from the residue outwards. Ends that are not written are not given here. Glu = Glu spacer between Lys side chain and the C16 fatty acid (EC16FA); PhLac = O=C(O)[C@@H](O)Cc1ccccc1
Just the number plus its unit, please.

I would be grateful if you could share the reported GLP-1 agonism EC50 for [PhLac]TSDK([Glu-C16 fatty acid])SKYLDERRAKDFVQWLMDT-NH2 (lactam 11-15) [[PLA6, K10(EC16FA), E16K20(lactam),D28]G(6-29)] .
129 nM

I would be grateful if you could share the reported GLP-1 agonism EC50 for [PhLac]TSDYSKYLDERRAKDFVK([Glu-C16 fatty acid])WLMDT-NH2 (lactam 11-15) [[PLA6, E16K20(lactam), K24(EC16FA), D28]G(6-29)] .
293 nM

I would be grateful if you could share the reported GLP-1 agonism EC50 for [PhLac]TSDYSKYLDERRAK([Glu-C16 fatty acid])DFVQWLMDT-NH2 [[PLA6, E16, K20(EC16FA), D28]G(6-29)] .
1290 nM

I would be grateful if you could share the reported GLP-1 agonism EC50 for [PhLac]TSDYSKYLDERRAKDFVQWLMDK([Glu-C16 fatty acid])-NH2 (lactam 11-15) [[PLA6, E16K20(lactam), D28, K29(EC16FA)]G(6-29)] .
1410 nM

I would be grateful if you could share the reported GLP-1 agonism EC50 for [PhLac]TSDK([Glu-C16 fatty acid])SKYLDERRAKDFVQWLMDT-NH2 [[PLA6, K10(EC16FA), E16, K20,D28]G(6-29)] .
105 nM

I would be grateful if you could share the reported GLP-1 agonism EC50 for [PhLac]TSDYSKYLDERRAKDFVQWLMDT-NH2 (lactam 11-15) [[PLA6, E16K20(lactam), D28]G(6-29)] .
20.7 nM

I would be grateful if you could share the reported GLP-1 agonism EC50 for [PhLac](C16 fatty acid)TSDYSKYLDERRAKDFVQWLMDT-NH2 (lactam 11-15) [[C16FA-O-PLA6, E16K20(lactam),D28]G(6-29)] .
45.7 nM
